Test: Pharmacokinetic test in SD male rats (Experimental Examples 11, 12, 15)
Assay type: in vivo
Conditions: rat, plasma, po, 10 mg/kg, oral 10 mg/kg in Vehicle: 5% DMSO, 40% PEG400 and 55% DW (Exp. 15-2)
Procedure: Intravenous administration was performed through a tube inserted into the femoral vein, and oral administration was performed using oral gavage. After the administration, the experimental animals' blood was taken at predetermined time intervals for 24 hours. Then, the blood was centrifuged to separate plasma. The plasma samples were pretreated with a suitable organic solvent, and then the concentration of the plasma samples was analyzed by LC-MS/MS. […]
Measurement Kind: AUC(0-inf) (ng·h/mL)
Write it as a number; the unit ng·h/mL goes unstated.

Prompt: What does the data say about its AUC(0-inf)? Entry: O[C@@H]1[C@H](O)CS[C@H]1n1cnc2c(NCc3cccc(Cl)c3)nc(Cl)nc21 [Example 2]
Response: 26700

====

assay: Pharmacokinetic test in dogs (Experimental Example 14); type: in vivo; conditions: plasma; dog, G1, IV, 2 mg/kg; read-out: Vss
Measurement Kind: Vd (L/kg)
Write it as a number; the unit L/kg goes unstated.

Prompt: What does the data say about its Vd? Entry: O[C@@H]1[C@H](O)CS[C@H]1n1cnc2c(NCc3cccc(Cl)c3)nc(Cl)nc21 [Example 2]
Response: 6.02

====

Experiment: Pharmacokinetic test in dogs (Experimental Example 14)
Format: in vivo
Details: dog, plasma, iv, 2 mg/kg, G1, IV
Protocol: Intravenous administration was performed through a tube inserted into the femoral vein, and oral administration was performed using oral gavage. After the administration, the experimental animals' blood was taken at predetermined time intervals for 24 hours. Then, the blood was centrifuged to separate plasma. The plasma samples were pretreated with a suitable organic solvent, and then the concentration of the plasma samples was analyzed by LC-MS/MS. […]
Measurement Kind: AUC(0-inf) (ng·h/mL)
Write it as a number; the unit ng·h/mL goes unstated.

Prompt: What does the data say about its AUC(0-inf)? Entry: O[C@@H]1[C@H](O)CS[C@H]1n1cnc2c(NCc3cccc(Cl)c3)nc(Cl)nc21
Response: 1070

====

assay: Pharmacokinetic test in ICR male mice (Experimental Example 13); type: in vivo; conditions: mouse, plasma, po, P.O., 10 mg/kg
Measurement Kind: AUC(0-t) (ng·h/mL)
Write it as a number; the unit ng·h/mL goes unstated.

Prompt: What does the data say about its AUC(0-t)? Entry: O[C@@H]1[C@H](O)CS[C@H]1n1cnc2c(NCc3cccc(Cl)c3)nc(Cl)nc21 [Example 2]
Response: 100000

====

Experiment: Pharmacokinetic test in SD male rats (Experimental Examples 11, 12, 15)
Format: in vivo
Conditions: plasma, po, rat, P.O., 5 mg/kg, read-out: Ft (bioavailability)
Description: Intravenous administration was performed through a tube inserted into the femoral vein, and oral administration was performed using oral gavage. After the administration, the experimental animals' blood was taken at predetermined time intervals for 24 hours. Then, the blood was centrifuged to separate plasma. The plasma samples were pretreated with a suitable organic solvent, and then the concentration of the plasma samples was analyzed by LC-MS/MS. […]
Measurement Kind: bioavailability (%)
Write it as a number; the unit % goes unstated.

Prompt: What does the data say about its bioavailability? Entry: O[C@@H]1[C@H](O)CS[C@H]1n1cnc2c(NCc3cccc(Cl)c3)nc(Cl)nc21 [Example 2]
Response: 49.7

====

Measured melting point, listed per entry.

> print(dat)
                                   compound     recorded.value
1  O[C@@H]1[C@H](O)CS[C@H]1n1cnc2c(NCc3cccc(F)c3)nc(Cl)nc21 [Example 1]  183.2 to 183.5 °C
2  COc1ccc(Cl)cc1CNc1nc(Cl)nc2c1ncn2[C@@H]1SC[C@@H](O)[C@H]1O [Example 6]  188.8 to 189.8 °C
3  O[C@@H]1[C@H](O)CS[C@H]1n1cnc2c(NCc3ccccc3Cl)nc(Cl)nc21 [Example 5]  198.7 to 199.7 °C
4  OC1CO[C@@H](n2cnc3c(NCc4cccc(I)c4)nc(Cl)nc32)C1O (some centres unmarked) [Example 16]  195.5 to 195.8 °C

Prompt: What does the data say about its melting point? Entry: O=C(O)c1cccc(CNc2nc(Cl)nc3c2ncn3[C@@H]2SC[C@@H](O)[C@H]2O)c1 [Example 9]
Response: 254 to 256.9 °C

Prompt: What does the data say about its melting point? Entry: O[C@@H]1[C@H](O)CS[C@H]1n1cnc2c(NCc3cccc(I)c3)ncnc21 [Example 14]
Response: 198.8 to 199.8 °C

Prompt: What does the data say about its melting point? Entry: O[C@@H]1[C@H](O)CO[C@H]1n1cnc2c(NCc3cccc(Br)c3)nc(Cl)nc21 [Example 15]
Response: 181.5 to 181.7 °C

Prompt: What does the data say about its melting point? Entry: O[C@@H]1[C@H](O)CS[C@H]1n1cnc2c(NCc3cccc4ccccc34)nc(Cl)nc21 [Example 8]
Response: 226.3 °C (dec.)

Prompt: What does the data say about its melting point? Entry: COc1ccccc1CNc1nc(Cl)nc2c1ncn2[C@@H]1SC[C@@H](O)[C@H]1O [Example 7]
Response: 188 °C

Prompt: What does the data say about its melting point? Entry: O[C@@H]1[C@H](O)CS[C@H]1n1cnc2c(NCc3cccc(Br)c3)nc(Cl)nc21 [Example 3]
Response: 184 to 185 °C

Prompt: What does the data say about its melting point? Entry: O[C@@H]1[C@H](O)CS[C@H]1n1cnc2c(NCc3cccc(Br)c3)ncnc21 [Example 13]
Response: 183 to 184 °C
